src = patent US7794972B2

- Test system: Pben promoter (Pben509, Pben278)
- Assay summary: Benzoate promoter (Pben) reporter gene induction (lacZ β-galactosidase / phoA alkaline phosphatase)
- Assay type: cell-based, Pseudomonas fluorescens
- Assay context: P. fluorescens MB101, reporter gene lacZ or phoA
Experimental endpoint: induction of the benzoate promoter (Pben509, Pben278)

Compound | Target system | Value
O=C(O)/C=C\C=C/C(=O)O [cis, cis-muconate] | Pben promoter (Pben509, Pben278) | fail to induce
Oc1ccccc1O [catechol] | Pben promoter (Pben509, Pben278) | fail to induce
O=C(O)c1ccccc1 [benzoic acid] | Pben promoter (Pben509, Pben278) | inducible
Cc1cccc(C(=O)O)c1 [m-toluic acid] | Pben promoter (Pben509, Pben278) | inducible
